Target: T1, human plasma kallikrein (human, UniProt P03952 20-390; P03952 391-638)
T1 construct: two disulfide-linked chains; NP_000883.2; also called pKal; hpKal
T1 sequence (P03952 20-390 limits assumed, chain 1 of 2): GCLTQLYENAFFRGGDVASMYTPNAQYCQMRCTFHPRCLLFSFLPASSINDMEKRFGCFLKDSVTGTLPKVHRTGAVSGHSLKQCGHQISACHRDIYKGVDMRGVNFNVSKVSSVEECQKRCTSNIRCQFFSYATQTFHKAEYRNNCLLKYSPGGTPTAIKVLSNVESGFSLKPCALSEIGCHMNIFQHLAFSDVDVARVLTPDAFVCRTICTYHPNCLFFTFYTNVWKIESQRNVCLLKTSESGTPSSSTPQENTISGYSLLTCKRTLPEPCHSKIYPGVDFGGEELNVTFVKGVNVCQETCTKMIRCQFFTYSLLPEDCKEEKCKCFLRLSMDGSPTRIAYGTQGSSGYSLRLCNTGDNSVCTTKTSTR
T1 sequence (P03952 391-638 limits assumed, chain 2 of 2): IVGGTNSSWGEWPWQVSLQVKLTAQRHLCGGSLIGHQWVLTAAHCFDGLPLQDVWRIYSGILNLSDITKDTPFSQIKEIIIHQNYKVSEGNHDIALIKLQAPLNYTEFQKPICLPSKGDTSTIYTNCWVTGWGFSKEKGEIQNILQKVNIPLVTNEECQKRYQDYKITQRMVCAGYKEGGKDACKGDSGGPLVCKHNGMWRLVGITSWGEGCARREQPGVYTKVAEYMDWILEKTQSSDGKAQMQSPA
Assay: ELISA, biotinylated pKal signal over streptavidin background
Reported Endpoint: ELISA (T/B)
Keep it simple and answer with nothing but the number.

Example results:
| Binder | Measured Result |
| --- | --- |
| M28-F01 (Fab, V domains shown) VH: EVQLLESGGGLVQPGGSLRLSCAASGFTFSVYLMHWVRQAPGKGLEWVSGISPSGGYTQYADSVKGRFTISRDNSKNTLYLQMNSLRAEDTAVYYCARPGGLDAFDIWGQGTMVTVSS VL: DIQMTQSPSSLSASVGDRVTITCRASQSINTYLNWYQQKPGKAPKVLIHAASTLESGVPSRFSGSGSGTDFTLTISSLQPEDFATYYCQQSYSTPPTFGQGTKVEIK | 1.5 |
| M10-C11 (Fab, V domains shown) VH: EVQLLESGGGLVQPGGSLRLSCAASGFTFSMYPMMWVRQAPGKGLEWVSYISPSGGMTDYADSVKGRFTISRDNSKNTLYLQMNSLRAEDMAVYYCARVAGSSDAFDIWGQGTMVTVSS VL: DIQMTQSPSSLSASVGDRVTITCRASQSISIYLNWYQQKPEKAPKLLIFAASTLQSGVPSRFSGSGSGTDFTLTISNLQPEDFATYYCQQSHSIPPTFGLGTKVEVK | 5.3 |
| M10-A03 (Fab, V domains shown) VH: EVQLLESGGGLVQPGGSLRLSCAASGFTFSPYPMQWVRQAPGKGLEWVSSISSSGGMTEYADSVKGRFTISRDNSKNTLYLQMNSLRAEDTAVYYCARDDYGGKGGAFDIWGQGTMVTVSS VL: DIQMTQSPSSLSASVGDRVTITCRASQRISFYLNWFQQKPGKAPNLLIYGASSLQSGVPSRFSGSGSGTDFTLTISSLQPKDFGTYYCQQTFSTPNTFGQGTKLEIK | 33.7 |
| M11-A10 (Fab, V domains shown) VH: EVQLLESGGGLVQPGGSLRLSCAASGFTFSNYWMMWVRQAPGKGLEWVSGIGSSGGFTSYADSVKGRFTISRDNSKNTLYLQMNSLRAEDTAVYYCAKGSYSDYGVFESWGQGTLVTVSS VL: DIQMTQSPSSLSASVGDRVAITCRASQSIDTYLNWYQQKPGKAPKLLIYDASNLEIGVPSRFSGSGSGTDFTFIINSLQPEDVATYYCQHYLYAPYSFGQGTKLEIK | 25 |

// moving on: another record for ELISA (T/B)
query: Give the reported value of ELISA (T/B) for this record: M28-F07 (Fab, V domains shown) VH: EVQLLESGGGLVQPGGSLRLSCAASGFTFSDYTMYWVRQAPGKGLEWVSSIVPSGGHTLYADSVKGRFTISRDNSKNTLYLQMNSLRAEDTAVYYCAKDHLSSWYGGFFDYWGQGTLVTVSS VL: DIQMTQSPSSVSASVGDRVTITCRASQGISSWLAWYQQKPGKAPKLLIYATSGLQSGVPSRFSGSGSGTDFTLTISSLQPEDFATYYCQQAKSFPLTFGGGTRVEIK
result: 33
